Value source: patent US20210220408A1

- SYSTEM NAME: aryl hydrocarbon receptor (AHR) (Homo sapiens, UniProt P35869)
- Sequence (P35869 11-848): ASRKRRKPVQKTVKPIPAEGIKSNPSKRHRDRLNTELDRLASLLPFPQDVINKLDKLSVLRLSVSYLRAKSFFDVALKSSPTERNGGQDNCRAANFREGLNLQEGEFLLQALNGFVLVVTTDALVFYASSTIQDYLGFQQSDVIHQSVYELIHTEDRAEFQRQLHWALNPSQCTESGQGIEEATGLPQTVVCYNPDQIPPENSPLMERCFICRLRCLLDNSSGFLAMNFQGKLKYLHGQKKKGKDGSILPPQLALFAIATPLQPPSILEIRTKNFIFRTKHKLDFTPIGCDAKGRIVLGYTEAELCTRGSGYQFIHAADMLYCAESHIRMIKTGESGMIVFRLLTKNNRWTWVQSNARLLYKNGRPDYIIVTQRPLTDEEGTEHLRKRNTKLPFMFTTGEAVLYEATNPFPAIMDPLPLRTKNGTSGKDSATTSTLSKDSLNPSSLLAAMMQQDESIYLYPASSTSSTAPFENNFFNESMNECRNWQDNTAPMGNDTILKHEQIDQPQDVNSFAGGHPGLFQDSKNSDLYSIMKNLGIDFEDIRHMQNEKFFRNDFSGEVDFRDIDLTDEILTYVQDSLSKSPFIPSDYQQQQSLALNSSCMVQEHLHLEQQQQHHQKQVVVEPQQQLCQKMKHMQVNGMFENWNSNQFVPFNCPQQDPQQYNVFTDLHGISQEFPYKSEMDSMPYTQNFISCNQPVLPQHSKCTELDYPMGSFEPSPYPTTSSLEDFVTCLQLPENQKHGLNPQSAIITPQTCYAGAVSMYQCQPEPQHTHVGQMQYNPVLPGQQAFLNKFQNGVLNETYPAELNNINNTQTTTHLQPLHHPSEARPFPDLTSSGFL
- ASSAY PROCEDURE: DRE-Luciferase reporter high-throughput screen (AHR antagonist, VAF347-activated)
pIC50: −log10 of the molar value.
MEASURE NAME: pIC50

CC(=O)c1csc(COc2cc(Cl)cc(Cl)c2)n1 [55A]
5.70 to 6.00
CC(C)(C)c1ccc(O)c(NC(=O)c2cnc3ccccn3c2=O)c1
6.00 to 6.30
Cc1ccc2nc3sc(C(=O)Nc4cccc(C(F)(F)F)c4)cc3c(=O)n2c1
> 6.70
OCc1cc(Cl)c(OCc2ccc(F)cc2)c(Cl)c1 [90B]
5.70 to 6.00

Query: Query (compound): CC(C)CCNC(=O)c1[nH]nc2c1COc1ccccc1-2 [183A] ; field requested: pIC50
Reply: < 5.70
